test system: HCV genotype 1b (Con1) replicon in HUH-7 cells; test: HCV replicon luciferase reporter assay, genotype 1b; format: cell-based; conditions: Hepatitis C virus, Huh-7, 72 h, HCV genotype 1b replicon luciferase, 3 days incubation, read-out: LE_1b (EC50, range)
endpoint label: EC50

• COc1ccc2c(O[C@@H]3C[C@H]4C(=O)N[C@]5(C(=O)NS(=O)(=O)C6CC6)C[C@H]5/C=C\CC[C@H](C)C[C@@H](C)[C@H](NC(=O)OC(C)(C)C)C(=O)N4C3)ncnc2c1 = < 5.46 nM
• CC[C@@H]1C[C@H](C)CC/C=C\[C@@H]2C[C@@]2(C(=O)NS(=O)(=O)C2(C)CC2)NC(=O)[C@@H]2C[C@@H](Oc3ncc(OC)c4ccccc34)CN2C(=O)[C@H]1NC(=O)OC(C)(C)C(F)F = 0.1 to 0.5 nM
• [2H]C([2H])([2H])C(OC(=O)N[C@@H]1C(=O)N2C[C@H](Oc3nccc4cc(OC(C)C)ccc34)C[C@H]2C(=O)N[C@]2(C(=O)NS(=O)(=O)C3CC3)C[C@H]2/C=C\CC[C@@H](C)C[C@H]1C)(C([2H])([2H])[2H])C([2H])([2H])[2H] = < 5.46 nM
• CCOc1cc2ccnc(O[C@@H]3C[C@H]4C(=O)N[C@]5(C(=O)NS(=O)(=O)C6CC6)C[C@H]5/C=C\CC[C@@H](C)C[C@@H](C)[C@H](NC(=O)OC(C)(C)C(C)(F)F)C(=O)N4C3)c2cc1F = 0.1 to 0.5 nM

----------
Each item that follows carries a reported pEC50.
system: HCV genotype 1b (Con1) replicon in HUH-7 cells; experiment: HCV replicon luciferase reporter assay, genotype 1b; assay type: cell-based; details: Hepatitis C virus, Huh-7, 72 h, HCV genotype 1b replicon luciferase, 3 days incubation, read-out: LE_1b (EC50, range)
pEC50: −log10 of the molar value.
endpoint label: pEC50

- CCOc1nnc(O[C@@H]2C[C@H]3C(=O)N[C@]4(C(=O)NS(=O)(=O)C5(C)CC5)C[C@H]4/C=C\CC[C@H](C)C[C@@H](C)[C@H](NC(=O)OC(C)(C)C(F)(F)F)C(=O)N3C2)c2ccccc12: 6.99 to 8.32
- CC[C@@H]1C[C@H](C)CC/C=C\[C@@H]2C[C@@]2(C(=O)NS(=O)(=O)C2CC2)NC(=O)[C@@H]2C[C@@H](Oc3nccc4cc(OC)c(F)cc34)CN2C(=O)[C@H]1NC(=O)OC(C)(C)C: > 8.26
- CC[C@@H]1C[C@H](C)CC/C=C\[C@@H]2C[C@@]2(C(=O)NS(=O)(=O)C2(C)CC2)NC(=O)[C@@H]2C[C@@H](Oc3nccc4cc(OC)c(F)cc34)CN2C(=O)[C@H]1NC(=O)OC(C)(C)C(C)(F)F: 8.30 to 9.00
- CCOc1cc2ccnc(O[C@@H]3C[C@H]4C(=O)N[C@]5(C(=O)NS(=O)(=O)C6(CF)CC6)C[C@H]5/C=C\CC[C@@H](C)C[C@@H](C)[C@H](NC(=O)OC(C)(C)C(F)(F)F)C(=O)N4C3)c2cc1F: 9.00 to 9.29

----------
system: HCV genotype 1a (H77 strain) replicon in HUH-7 cells; experiment: HCV replicon luciferase reporter assay, genotype 1a; assay type: cell-based; details: Hepatitis C virus, Huh-7, 72 h, HCV genotype 1a replicon luciferase, 3 days incubation, read-out: LE_1a (EC50)
Each item that follows carries a reported EC50.
endpoint label: EC50 (nM)

* [2H]C([2H])([2H])C(OC(=O)N[C@@H]1C(=O)N2C[C@H](Oc3nccc4c5c(ccc34)N(C)CCO5)C[C@H]2C(=O)N[C@]2(C(=O)NS(=O)(=O)C3(C)CC3)C[C@H]2/C=C\CC[C@H](C)C[C@H]1C)(C([2H])([2H])[2H])C(F)(F)F | 7.06
* C[C@@H]1CC/C=C\[C@@H]2C[C@@]2(C(=O)NS(=O)(=O)C2(C)CC2)NC(=O)[C@@H]2C[C@@H](Oc3nccc4c5c(ccc34)N(C)CCO5)CN2C(=O)[C@@H](NC(=O)C(=O)N(C)C)[C@H](C)C1 | 2.97
* C[C@H]1CC/C=C\[C@@H]2C[C@@]2(C(=O)NS(=O)(=O)C2(C)CC2)NC(=O)[C@@H]2C[C@@H](Oc3nccc4c5c(ccc34)OCCO5)CN2C(=O)[C@@H](NC(=O)OCC2(C)CC2)[C@H](C)C1 | 22.6
